# Test system: male ICR mice
# experiment-summary: Mouse toxicity test, intraperitoneal (Example 6)
# run-conditions: male ICR mice, intraperitoneal, 14 days observation
measured-property: Median lethal dose (mg/kg)
Just the number please, in mg/kg, no unit attached.

Answered cases to consult:
{"compound": "CON=C1CN(c2nc3c(cc2F)c(=O)c(C(=O)O)cn3C2CC2)CC12CNC2 [Formate]", "unit-tag": "mg/kg", "Median lethal dose": 716.24}
{"compound": "CON=C1CN(c2nc3c(cc2F)c(=O)c(C(=O)O)cn3C2CC2)CC12CNC2.Cl [Hydrochloride]", "unit-tag": "mg/kg", "Median lethal dose": 481.93}
{"compound": "CON=C1CN(c2nc3c(cc2F)c(=O)c(C(=O)O)cn3C2CC2)CC12CNC2 [Methanesulfonate]", "unit-tag": "mg/kg", "Median lethal dose": 716.24}

API: the following record is the query input.
Dear colleague, I am looking for the recorded Median lethal dose of the following compound: CON=C1CN(c2nc3c(cc2F)c(=O)c(C(=O)O)cn3C2CC2)CC12CNC2 [Phosphate]
356.91
